# test_system: T1, human cannabinoid receptor type 1 (CB1) (human, UniProt P21554 1-472)
# T1 construct: DiscoverX cAMP Hunter CHO-K1 CNR1 Gi cells for cAMP and pERK assays; also called huCB1; huCB-1
# T1 sequence (P21554 whole entry): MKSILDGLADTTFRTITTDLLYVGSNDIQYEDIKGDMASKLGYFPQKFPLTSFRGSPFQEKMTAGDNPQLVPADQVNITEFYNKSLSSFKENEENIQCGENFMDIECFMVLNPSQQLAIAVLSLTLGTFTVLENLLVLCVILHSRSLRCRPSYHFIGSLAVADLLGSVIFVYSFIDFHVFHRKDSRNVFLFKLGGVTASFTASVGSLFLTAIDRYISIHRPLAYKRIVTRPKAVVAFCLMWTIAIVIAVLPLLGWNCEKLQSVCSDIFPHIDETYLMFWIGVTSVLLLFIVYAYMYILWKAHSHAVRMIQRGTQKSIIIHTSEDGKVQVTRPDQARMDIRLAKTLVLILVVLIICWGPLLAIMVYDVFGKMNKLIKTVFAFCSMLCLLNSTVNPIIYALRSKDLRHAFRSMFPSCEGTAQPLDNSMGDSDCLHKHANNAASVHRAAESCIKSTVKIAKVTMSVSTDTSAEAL
# experimental_protocol: FACS, titration on CB1 over-expressing CHO cells
observed_property: pEC50
Please keep in mind that pEC50 is minus log10 of the molar concentration; only the number is needed.

INPUT: pEC50 for M3 mouse anti-huCB-1 antibody (antibody, V domains shown) VH: QVQLQQSGPELVRPGVSVKISCKGSGYEFTDYALHWVKQSHAETLEWIGLITTYYGDTNYNQKFKGKATMTVDKSSSTAYMELARLTSEDSAIYYCARGGYYYGTDYRYFDVWGAGTTVTVSS VL: DILLTQSPAILSVSPGERVSFSCRASQSIGTNIHWYQQRPNGSPRLLIKYASESISGIPSRFSGSGSGSDFTLSINSVESEDIADYYCQQSITWPLTFGAGTKLELK ?
OUTPUT: 7.21

INPUT: What value of pEC50 has been reported for the following binder? M8 mouse anti-huCB-1 antibody (antibody, V domains shown) VH: QVQLQQPGAELVKPGASVKLSCKASGYTFTDYWMHWVKQRPGHGLEWIGEIYPSSGRANYNGNFKRKATLTVDKSSSTAYMQLSSLTSEDSAVYYCARSRGNYLPYWGHGTPVTVSA VL: QIVLTQSPAIMSASLGERVTMTCTAGSTVSSSYLHWYQQRPGSSPKLWIYGTSNLASGVPARFSGSGSGTSYSLTISSMEAEDAATYYCHQYHRSPPTFGGGTKLEIK
OUTPUT: 7.97

INPUT: Endpoint output: pEC50 of M2 mouse anti-huCB-1 antibody (antibody, V domains shown) VH: EVQLQQSGPELVKPGTSVKISCKASGYTFTDYNMHWVKLGKSLEWIGYFYPDDGGSGYNQKFKGKATLTIDKSSSTAYMELHSLTSEDSAVYYCARGYGNSWGTYWGQGTLVTVSA VL: EIVLTQSPTTMAASPGEKITITCSASSRISSNYLYWYQQKPGFSPKLLIYRTSNLASGVPARFSGSGSGTSYSLTIGTMEAEDVATYYCQQGSSIPYTFGGGTKLEIK . Value?
OUTPUT: 7.46

INPUT: # query: pEC50 of entry M4 mouse anti-huCB-1 antibody (antibody, V domains shown) VH: QVQLQQSGAELVRPGSSVKISCKASGYEFNYYWMNWVKQRPGQGLEWIGQIYPGDGDINYNGKFKGKATLTSDKSSSTVYMQLSSLTSEDSAVYFCSRSKGNPFAYWGQGTLVTVSA VL: DIQMTQTTSSLSASLGDSVTISCRASQGIRNYLNWYQQKPDGTVKLLIYYTSRLHSGVPPRFSGSGSGTDYSLTISNLEQEDLATYFCQQGNTLPYTFGGGTKLEIK
OUTPUT: 7.72

INPUT: Look up pEC50: M7 mouse anti-huCB-1 antibody (antibody, V domains shown) VH: EVQLQQPGAELVRPGASVKLSCKASSYTFTRYWMNWVKQRPEEGLEWIGMIDPYDSETHYNQKFKDKAILTVDKSSSTAYMQLSTLTSEDSAVYFCARSQPRYYAMDYWGQGTSVTVSS VL: DIQMSQSPSSLSASLGERVSLTCRASQEISGFLSWLQLRPDGTIKRLIYAASSLDSGVPKRFRGSWSGSDYSLTISSLESEDFADYYCLQYSSYPYTFGGGTKLEIK
OUTPUT: 7.89
